- PROCEDURE SUMMARY: Biodistribution study in LNCaP tumor-bearing mice (Th227 counted in organs)
- Assay type: in vivo, SCID mice
- EXPERIMENTAL CONTEXT: 0.25 h; 1500 kBq/kg
Exercise: for every item that follows, state its recorded Th-227 in brain.
Please report the result as a number followed by the unit.

The compound Cc1cc(C(=O)NCCN(CCCN(CCNC(=O)c2cc(C)n(CC(=O)O)c(=O)c2[O-])CCNC(=O)c2cc(C)n(CC(=O)NCC3CCC(C(=O)NC(Cc4cnc5ccccc5c4)C(=O)NCCCCC(NC(=O)NC(CCC(=O)O)C(=O)O)C(=O)O)CC3)c(=O)c2[O-])CCNC(=O)c2cc(C)n(CC(=O)NCC3CCC(C(=O)NC(Cc4cnc5ccccc5c4)C(=O)NCCCCC(NC(=O)NC(CCC(=O)O)C(=O)O)C(=O)O)CC3)c(=O)c2[O-])c([O-])c(=O)n1CC(=O)O.[227Th+4] (stereo not shown) [Example 22-C dimer-227Th] showed Th-227 in brain equal to 0.13% ID Th-227/g organ

The compound O=C([O-])CN1CCN(CC(=O)[O-])CCN(CC(=O)NCC2CCC(C(=O)NC(Cc3ccc4ccccc4c3)C(=O)NCCCCC(NC(=O)NC(CCC(=O)O)C(=O)O)C(=O)O)CC2)CCN(CC(=O)[O-])CC1.[227Th+4] (stereo not shown) [Example 1-B-227Th] showed Th-227 in brain equal to 0.27% ID Th-227/g organ

The compound O=C([O-])CN1CCN(CC(=O)[O-])CCN(CC(=O)NCC2CCC(C(=O)NC(Cc3ccc4ccccc4c3)C(=O)NCCCCC(NC(=O)NC(CCC(=O)O)C(=O)O)C(=O)O)CC2)CCN(CC(=O)[O-])CC1.[227Th+4] [Example 1-B-D-227Th] showed Th-227 in brain equal to 0.18% ID Th-227/g organ

The compound O=C([O-])CN1CCN(CC(=O)[O-])CCN(CC(=O)NCc2ccc(C(=O)N[C@@H](Cc3ccc4ccccc4n3)C(=O)NCCCC[C@H](NC(=O)N[C@@H](CCC(=O)O)C(=O)O)C(=O)O)nc2)CCN(CC(=O)[O-])CC1.[227Th+4] [Example 34-B-227Th] showed Th-227 in brain equal to 0.12% ID Th-227/g organ
